All figures here come from the supplement of paper PMC10567573.

B1: CDS2 (parent)
chain: IHSIALSTFASLIGPFGGFFASGF

# Variants of: B1
# measurement-notes: protein stability index of a GFP-peptide fusion (GPS, HEK-293T) (PSI 1-6); higher = more stable;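 further: lentivirally expressed fusions sorted by FACS into six bins by GFP to DsRed ratio, PSI derived from sequencing read proportions per bin multiplied by bin number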
# experimental-parameters: c terminus: a fixed tail appended
outcome-measure: protein stability index
Number only, please.

These recorded examples may help you get a feel for the data.
H2S: 2.03
G17Q: 2.83
A5V: 1.84
T8P: 3.52
A10K: 1.79
H2T: 3.98
S7N: 2.5
T8D: 2.14

Query: Requested field: protein stability index. Item: A10T
Result: 4.58

Query: Next: F20I
Result: 2.13

Query: Next: P15I
Result: 4.59

Query: Next: A21N
Result: 2.8

Query: Next: G14C
Result: 2.05

Query: Next: G14T
Result: 2.79

Query: Next: L12Y
Result: 2.37

Query: Next: A5H
Result: 2.81

Query: Next: S11L
Result: 2.8
